# run_description: Selectivity index, ratio of cytotoxicity against HEK293T cells to MIC for Mycobacterium tuberculosis H37Rv ATCC 27294
# Format: toxicity, cell-based, HEK-293T
# test_settings: human, read-out: Selectivity Index

{"columns": ["structure_smiles_string", "selectivity ratio"],
 "data": [
  ["O=c1c2ccccc2nc(/C=C/c2c(O)cccc2O)n1-c1ccccc1", "> 8"],
  ["O=c1c2ccccc2nc(/C=C/c2ccccc2)n1-c1ccc(Br)cc1", "> 8"],
  ["COc1cc(-n2c(/C=C/c3cccs3)nc3ccccc3c2=O)cc(OC)c1OC", "< 8"],
  ["COc1cc(-n2c(/C=C/c3ccc(SC)cc3)nc3ccccc3c2=O)cc(OC)c1OC", "> 125"],
  ["O=c1c2ccccc2nc(/C=C/c2ccccc2)n1-c1ccccc1", "> 16"],
  ["O=c1c2ccccc2nc(/C=C/c2ccc(F)cc2)n1-c1ccc(Cl)cc1", "> 8"],
  ["COc1cc(-n2c(/C=C/c3ccc(F)cc3)nc3ccccc3c2=O)cc(OC)c1OC", "> 8"],
  ["CSc1ccc(-n2c(/C=C/c3ccco3)nc3ccccc3c2=O)cc1", "> 8"],
  ["COc1ccc(/C=C/c2nc3ccccc3c(=O)n2-c2ccc(OC)cc2)cc1", "> 32"],
  ["COc1ccc(-n2c(/C=C/c3ccc(Cl)cc3)nc3ccccc3c2=O)cc1", "< 16"],
  ["COc1ccc(-n2c(/C=C/c3ccco3)nc3ccccc3c2=O)cc1", "< 8"],
  ["COc1cc(-n2c(/C=C/c3ccc(Cl)cc3)nc3ccccc3c2=O)cc(OC)c1OC", "> 16"],
  ["COc1cc(-n2c(/C=C/c3ccccc3)nc3ccccc3c2=O)cc(OC)c1OC", "> 64"],
  ["COc1ccc(-n2c(/C=C/c3cccs3)nc3ccccc3c2=O)cc1", "> 32"],
  ["Cc1ccc(/C=C/c2nc3ccccc3c(=O)n2-c2ccc(F)cc2)cc1", "> 8"],
  ["COc1ccc(-n2c(/C=C/c3ccccc3)nc3ccccc3c2=O)cc1", "> 32"],
  ["COc1cc(/C=C/c2nc3ccccc3c(=O)n2-c2ccccc2)cc(OC)c1OC", "> 64"],
  ["CSc1ccc(-n2c(/C=C/c3ccccc3)nc3ccccc3c2=O)cc1", "> 64"],
  ["Cc1ccc(/C=C/c2nc3ccccc3c(=O)n2-c2ccc(C)cc2)cc1", "> 16"],
  ["COc1cc(-n2c(/C=C/c3ccco3)nc3ccccc3c2=O)cc(OC)c1OC", "> 16"],
  ["O=c1c2ccccc2nc(/C=C/c2cccs2)n1-c1ccccc1", "< 16"],
  ["CSc1ccc(/C=C/c2nc3ccccc3c(=O)n2-c2ccccc2)cc1", "< 16"],
  ["CSc1ccc(-n2c(/C=C/c3cccs3)nc3ccccc3c2=O)cc1", "> 8"]
]}
